tested_target: T1, WT BRPF1 bromodomain (UniProt P55201 626-740)
T1 construct: bromodomain of bromodomain-PHD finger protein 1 (BRPF1); vector pNIC28-Bsa4; also called bromodomain-PHD finger protein 1 bromodomain; source: E. coli One Shot BL21 star (DE3), purified (Ni-NTA, Superdex-75)
T1 sequence: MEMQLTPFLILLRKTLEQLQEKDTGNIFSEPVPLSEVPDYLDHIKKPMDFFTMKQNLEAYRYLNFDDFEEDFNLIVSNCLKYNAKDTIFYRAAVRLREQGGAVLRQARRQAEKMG
procedure_summary: ITC; peptide (1.5 to 1.8 mM, syringe) injected into protein (80 to 100 μM, cell); 15 °C; 50 mM Hepes pH 7.5, 200 mM NaCl, 5% glycerol; single-binding site model
stated_conditions: both partners purified
Where no end group is shown, it is not given here.
property_label: pKd
Scale for pKd: -log10 of concentration given in mol/L; no unit attached.

Give reported pKd value for RVGLVAK(Ac)GLLLK(Ac)G (holds the KGLLLK (100-105) motif; also called RVGLVAKacGLLLKacG 8; source: synthetic peptide (GL Biochem Ltd and S. Biochem Ltd, HPLC purified)) [diacetylated ILF3 peptide 8] 3.60
